procedure_text: Plasma pharmacokinetics, Arm II (oral BID), phase 1 trial
Type: in vivo, human
condition: human, plasma, po, 230 mg, Arm II PO BID 230 mg, day 1, N=2, mean (individual)
observable: AUC(0-inf) (ng·h/mL)
Quick note: give the figure in ng·h/mL, leave out the unit.

Query string: Please give the measured AUC(0-inf) for this molecule: `Nc1ncc(-c2cnn(CCO)c2)c2scc(-c3ccc(NC(=O)Nc4cccc(F)c4)cc3)c12`
Result string: 9140

---

procedure_text: Plasma pharmacokinetics, Arm II (oral BID), phase 1 trial
Type: in vivo, human
condition: human, plasma, po, 90 mg, Arm II PO BID 90 mg, day 15, N=3; read-out: Tmax
observable: Tmax (h)
Quick note: give the figure in h, leave out the unit.

Query string: Please give the measured Tmax for this molecule: `Nc1ncc(-c2cnn(CCO)c2)c2scc(-c3ccc(NC(=O)Nc4cccc(F)c4)cc3)c12`
Result string: 7.6
